# ASSAY TARGET: hGLUT1 protein (Homo sapiens)
# Construct: fused on or other part: 11-amino-acid HiBiT peptide tag (small part of nanoluciferase) inserted into the first extracellular loop of GLUT1
# Sequence (P11166 whole entry, the tested form may be a part): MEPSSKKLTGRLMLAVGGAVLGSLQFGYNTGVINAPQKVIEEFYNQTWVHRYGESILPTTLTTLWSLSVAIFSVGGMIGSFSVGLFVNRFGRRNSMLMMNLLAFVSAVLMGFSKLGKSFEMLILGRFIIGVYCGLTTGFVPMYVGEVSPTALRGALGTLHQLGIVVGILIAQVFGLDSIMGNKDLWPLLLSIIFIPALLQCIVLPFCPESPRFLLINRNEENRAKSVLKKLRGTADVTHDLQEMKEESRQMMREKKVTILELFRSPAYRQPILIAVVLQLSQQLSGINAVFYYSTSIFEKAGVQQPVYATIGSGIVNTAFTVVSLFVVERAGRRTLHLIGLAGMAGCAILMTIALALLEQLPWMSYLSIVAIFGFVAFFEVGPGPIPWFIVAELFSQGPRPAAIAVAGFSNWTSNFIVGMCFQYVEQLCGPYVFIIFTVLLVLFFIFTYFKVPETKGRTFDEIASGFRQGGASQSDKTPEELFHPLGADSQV
# TEST DETAILS: NanoBRET-based GLUT1-binding assay in HEK cells
# APPLIED CONDITIONS: displacement of Bayer+NB618 (75 nM) from HiBit-tagged GLUT1 HEK cells; mean of measurements done twice in duplo; read-out: IC50
pIC50: −log10 of the molar value.
ATTRIBUTE MEASURED: pIC50

Solved cases below.
CO[C@H]1O[C@H](CO)[C@@H](O)[C@H](O)[C@H]1OC(=O)c1cc(Cl)c(OCc2cccc(CNC(=O)OC(C)(C)C)c2)c(Cl)c1C [Example 202a] :: 5.36
COC(=O)c1ccn2cc(COc3cc(OC)c(C(=O)N[C@H]4[C@@H](OC)O[C@H](CO)[C@@H](O)[C@@H]4O)cc3Cl)nc2c1 :: 5.01
COC(=O)/C=C/c1ccc(COc2cc(OC)c(C(=O)N[C@H]3[C@@H](OC)O[C@H](CO)[C@@H](O)[C@@H]3O)cc2Cl)cc1 :: 5.16
COc1cc(OCc2cccc(NC(=O)OC(C)(C)C)c2)c(Cl)cc1C(=O)N[C@H]1[C@H](OC)O[C@H](CO)[C@@H](O)[C@@H]1O :: 5.08
C#CCCCn1c(COc2cc(OC)c(C(=O)N[C@H]3[C@@H](OC)O[C@H](CO)[C@@H](O)[C@@H]3O)cc2Cl)nc2ccccc21 :: 4.87

a. C#CCCCn1c(COc2c(Cl)cc(C(=O)O[C@H]3[C@@H](OC)O[C@H](CO)[C@@H](O)[C@@H]3O)c(C)c2Cl)nc2ccccc21
b. CO[C@H]1O[C@H](CO)[C@@H](O)[C@H](O)[C@H]1NC(=O)c1cc(Cl)c(OCc2nc3ccccc3n2CCCCCCNC(=O)OC(C)(C)C)c(Cl)c1C
c. COc1cc(OCc2cccc(OCCCC(=O)OC(C)(C)C)c2)c(Cl)cc1C(=O)N[C@H]1[C@@H](OC)O[C@H](CO)[C@@H](O)[C@@H]1O
Please put the entries in order of rising pIC50. Lab note: record answer as labels in requested order.
c, b, a

a. C#CCCCCCn1c(COc2c(Cl)cc(C(=O)O[C@H]3[C@@H](OC)O[C@H](CO)[C@@H](O)[C@@H]3O)c(C)c2Cl)nc2ccccc21
b. COc1cc(OCc2ccc3c(c2)nnn3C)c(Cl)cc1C(=O)O[C@H]1[C@@H](OC)O[C@H](CO)[C@@H](O)[C@@H]1O
When their pIC50 values are compared, which is larger, a or b ? Identify your pick by its label.
a
(a: 6.66, b: 5.02)
